target: Retinaldehyde dehydrogenase 3 (Homo sapiens); assay: qHTS for Inhibitors of the Aldehyde Dehydrogenase Family (ALDH1A3) Primary screen (AID 2061315); settings: ALDH inhibition qHTS; series mostly up to 56 µM
Results filed as inconclusive are left out. The source made the active and inactive calls. Calls follow the shape of the dose curve; as a rule, active = well fitted inhibition curve with a large enough effect; inconclusive = small, poorly fitted or top-dose-only effect; inactive = no such curve, though single readings can be large or run the other way.
measurementKind: activity change, negative = inhibition

Recorded results for 6 compounds are shown here.
compound	activity change, negative = inhibition
C/C=C/[C@@H]1C=C[C@@H]2C[C@H](C)CC[C@H]2[C@]1(C)/C(O)=C1/C(=O)[C@@H](CO)N(C)C1=O	inactive
CC1(C)O[C@H]2CC(=O)OC[C@@]23C1=C(O)C(=O)[C@]1(C)C3CC[C@@]2(C)[C@H](c3ccoc3)OC(=O)[C@H]3O[C@]321 (stereo not given in full)	inactive
CC(C)(C)C(=O)Oc1ccc2c(c1)nc(NC(=O)c1cccc([N+](=O)[O-])c1)n2CCCO	inactive
Cc1nc(Nc2n[nH]c3c2CN(C(=O)NC(CN(C)C)c2ccccc2)C3(C)C)c2sccc2n1 (stereo not given)	inactive
CC1=CC[C@]2(C(=O)O[C@@H]3O[C@H](CO[C@@H]4O[C@H](CO)[C@@H](O[C@@H]5O[C@@H](C)[C@H](O)[C@@H](O)[C@H]5O)[C@H](O)[C@H]4O)[C@@H](O)[C@H](O)[C@H]3O)CC[C@]3(C)C(CCC4[C@@]5(C)C[C@@H](O)[C@H](O)[C@@](C)(CO)C5CC[C@]43C)C2C1C (stereo not given in full)	inactive
C=C[C@]1(C)C=C2CCC3C(C)(CCC[C@@]3(C)C(=O)O)C2CC1 (stereo not given in full)	inactive

Hi there! I need activity change, negative = inhibition for each item below, if you can.
1. C#Cc1nc(Nc2cccc(Cl)c2)nc(NC2CCCC2)n1
2. COC(=O)N1CCN(Cc2cccc(NC(=O)Nc3ccc(C)nc3)c2F)CC1
3. C[C@@H]1O[C@@H](O[C@H]2[C@@H]3C=CO[C@@H](O[C@@H]4O[C@H](CO)[C@@H](O)[C@H](O)[C@H]4O)[C@@H]3[C@@]3(CO)O[C@@H]23)[C@H](OC(=O)/C=C/c2ccc(O)cc2)[C@H](O)[C@H]1O
4. CO/N=C(/C(=O)N[C@@H]1C(=O)N2C(C(=O)O)=C(Cn3ccc(=N)n3CCO)CS[C@H]12)c1csc(N)n1
5. COc1ccc(C2Nc3ccccc3C(=O)N2Cc2ccccc2)cc1COc1ccccc1OC (stereo not given)
6. CC[N+]1(C/C2=C/CCCCCC2)CCC(NC(=O)C2c3cc(Cl)ccc3Oc3ccc(Cl)cc32)CC1 (stereo not given)

1. inactive
2. inactive
3. inactive
4. inactive
5. inactive
6. inactive

Hi there! I need activity change, negative = inhibition for each item below, if you can.
1. COc1ccc(-c2cc3nccn3c(Nc3ncccc3C(N)=O)n2)cc1OC
2. CC(C)(C)OC(=O)N1CCN(c2ccc(NCc3ccc(-c4ccc(C#N)cc4)o3)nc2)CC1

1. inactive
2. inactive

Measured activity change, negative = inhibition, "C[C@@H]1O[C@@H](OC[C@H]2O[C@@H](OCc3ccccc3)[C@H](O)[C@@H](O)[C@@H]2O)[C@H](O)[C@H](O)[C@H]1O" : inactive
